tested on: U251 CNS; experiment: NCI-60 one-dose screen, 48 h; conditions: 10 µM unless noted
This is part of a sample that, as a whole, favours compounds with a hit. Of some 83,000 tested, about 20% had one in any assay. Activity calls are given as the source filed them. The calls were made as follows: active = growth percent below 10; inactive = the rest.
Assign a class; possible classes are active, inactive

| molecule | label-class |
| --- | --- |
| COc1cc2nc(SCc3cc(OC)c(OC)c(OC)c3)n(-c3ccccc3OC)c(=O)c2cc1OC | inactive |
| Cn1c2ccccc2c2nn(Cc3ccccc3)c(=O)nc21 | inactive |
| COc1ccc(/C=C(\C#N)c2ccc(OC)cc2)cc1 | inactive |

Task: Query: recorded result category for "COc1cc(-c2nc(SC(C)C)nc(Nc3ccccc3C)c2C#N)cc(OC)c1OC" in this test
Output: inactive

Task: Query: recorded result category for "NS(=O)(=O)c1cc(Br)c2c(c1)S(=O)(=O)NCN2" in this test
Output: inactive

Task: Query: recorded result category for "Clc1ccc(Nc2ccnc(N3CCN(c4ccnc5cc(Cl)ccc45)CC3)n2)cc1" in this test
Output: inactive

Task: Query: recorded result category for "O=C(NCc1cccnc1)c1ccc([N+](=O)[O-])o1" in this test
Output: active

---

test system: SN12C renal; test: NCI-60 one-dose screen, 48 h; conditions: 10 µM unless noted
The panel holds about 83,000 compounds, 20% with a hit somewhere; the sample as a whole holds those more often. Activity calls are given as the source filed them. Rule for the calls: active = growth percent below 10; inactive = the rest.
Assign a class; possible classes are Yes = active, No = inactive

| compound | label-class |
| --- | --- |
| CCCCOC(=O)C1OC(Oc2ccc3c(C)cc(=O)oc3c2)[C@@H](OC(C)=O)C(OC(C)=O)C1OC(C)=O (stereo partly specified) | No |
| COc1nc2c(cc1S(=O)(=O)c1ccccc1)CCc1c-2cnn1-c1cccc(Cl)c1 | No |
| COc1ccc(Cn2c(Br)c3c(c2-c2cc(OC)c(OC)c(OC)c2)CCc2sc(N)nc2-3)cc1 | No |
| COc1cc(-c2ccc3cc(OC)c(OC)c(OC)c3c2)cc(OC)c1OC | No |
| CN1CCN(C(=O)OCCOCCOC(=O)N2CCN(C)CC2)CC1 | No |
| CCN1CCN(c2ccc(Nc3ncc4ccc5ncn(C(C)C)c5c4n3)nc2)CC1 | Yes |
| Cc1ccccc1-n1nnc(C(=O)Nc2nc(-c3ccccc3)c(-c3ccccc3)s2)c1C | No |
| COC(=O)c1ccc(C(=O)Nc2ccccc2N)cc1 | No |
| O=C1CN2CCC1C/C2=C\c1ccnc2c(Cl)cccc12 (stereo unspecified) | No |
| O=C(NCc1ccco1)C1CCN(S(=O)(=O)c2ccc(Cl)cc2)CC1 | No |

Task: Query: recorded result category for "O=c1[nH]c(-c2ccccn2)nc2sc3c(c12)CCCCCC3" in this test
Output: No

Task: Query: recorded result category for "COC(=O)[C@@]12CC[C@@H](C)[C@]3(C[C@@H](c4ccoc4)OC3=O)[C@H]1CC[C@@H]1O[C@@]12C" in this test
Output: No

Task: Query: recorded result category for "O=C(Nc1ccc(F)cc1)c1ccc(C(=O)Nc2ccc(F)cc2)cc1" in this test
Output: No

Task: Query: recorded result category for "CCCCCCCC/C=C\CCCCCCCCOc1cccc(CC(=O)NCC[N+]2(C)CCCCC2)c1" in this test
Output: No

Task: Query: recorded result category for "CN1CCc2c(c3ccccc3c3ccccc23)C1" in this test
Output: No

Task: Query: recorded result category for "CCOC(=O)n1cc(C2=C(c3cn(C)c4ccccc34)COC2=O)c2ccccc21" in this test
Output: No

Task: Query: recorded result category for "CCOC(=O)c1c(Cl)c2c(n1Cc1ccc(OC)cc1)-c1oncc1CCC2" in this test
Output: No

Task: Query: recorded result category for CC1=CN2C(=NC3=C(CCCC/C3=C\c3ccccc3)C2c2ccccc2)S1 (stereo unspecified) in this test
Output: No

Task: Query: recorded result category for "CC(=O)Nc1ccc(Sc2ccc([N+](=O)[O-])o2)cc1" in this test
Output: No

Task: Query: recorded result category for Cc1ccc(C2SCC(=O)N2NC(=O)c2[nH]c3ccc(F)cc3c2-c2ccccc2)cc1 (stereo unspecified) in this test
Output: No

Task: Query: recorded result category for "COc1nc2c(cc1S(=O)(=O)c1ccccc1)CCc1c-2cnn1-c1ccccc1Cl" in this test
Output: No
